# experimental system: T1, EsCas13d, nuclease-dead (Eubacterium siraeum, UniProt B0MS50, R295A;H300A;R849A;H854A)
# T1 sequence: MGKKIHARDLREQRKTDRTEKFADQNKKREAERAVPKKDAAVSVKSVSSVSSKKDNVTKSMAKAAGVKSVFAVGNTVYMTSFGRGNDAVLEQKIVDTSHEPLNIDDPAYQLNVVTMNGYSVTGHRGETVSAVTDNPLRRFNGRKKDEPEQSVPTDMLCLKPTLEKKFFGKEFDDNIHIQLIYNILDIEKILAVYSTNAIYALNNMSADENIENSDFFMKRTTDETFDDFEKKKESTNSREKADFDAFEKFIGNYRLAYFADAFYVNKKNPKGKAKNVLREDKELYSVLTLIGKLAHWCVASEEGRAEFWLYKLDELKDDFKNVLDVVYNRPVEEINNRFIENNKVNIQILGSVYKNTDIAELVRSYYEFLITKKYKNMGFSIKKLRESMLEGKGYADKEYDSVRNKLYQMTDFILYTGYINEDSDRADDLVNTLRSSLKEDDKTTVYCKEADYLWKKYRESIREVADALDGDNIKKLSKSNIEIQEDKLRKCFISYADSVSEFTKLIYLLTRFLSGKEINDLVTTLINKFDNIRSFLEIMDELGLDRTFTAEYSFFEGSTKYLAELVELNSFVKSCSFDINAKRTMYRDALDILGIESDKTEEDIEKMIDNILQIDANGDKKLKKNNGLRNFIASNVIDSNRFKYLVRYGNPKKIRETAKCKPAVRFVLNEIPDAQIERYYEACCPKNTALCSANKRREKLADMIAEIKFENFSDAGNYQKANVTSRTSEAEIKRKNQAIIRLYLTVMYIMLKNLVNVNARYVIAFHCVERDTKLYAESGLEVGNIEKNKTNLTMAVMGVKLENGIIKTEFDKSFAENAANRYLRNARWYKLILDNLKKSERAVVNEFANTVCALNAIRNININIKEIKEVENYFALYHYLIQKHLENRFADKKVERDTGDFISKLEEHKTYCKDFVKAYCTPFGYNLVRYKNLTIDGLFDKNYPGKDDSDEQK
# protocol: crRNA (strand 1, pre-loaded); Mg2+; 40 mM Tris-HCl pH 7.5, 150 mM NaCl, 6 mM MgCl2, 1 mM DTT, 0.1% Tween-20, 0.2 mg/ml BSA; 25 C; 10 min per concentration, then washed
# study conditions: tags: His6-TwinStrep-SUMO cleaved; N-terminal SNAP kept (SNAP-Surface 488); label: 3' end held by stalled T7 RNA polymerase
Listed binders paired with reported Kd
Numeric only. Scale: nM

Observe how each entry below is paired with its result.
Query :: Field request: Kd | item: target 2 MT 5'PFS UCG 3'PFS CAG (mixed) RNA 1: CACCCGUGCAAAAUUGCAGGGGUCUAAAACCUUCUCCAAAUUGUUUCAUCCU RNA 2: GGGAAUGGAUCCACAUCUACGAAUUCUCGAGGAUGAAACAAUUUGGAGAAGCAGAGAUCGGAAGAGCACACGU
Result :: 18.7

Query :: And what about the binder target 1 insG 3' of 11,insU 3' of 9 (mixed) RNA 1: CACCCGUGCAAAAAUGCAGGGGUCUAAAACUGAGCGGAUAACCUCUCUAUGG RNA 2: GGGAAUGGAUCCACAUCUACGAAUUCGUACCAUAGAGAGGUGUAUUCCGCUCACCGAGAUCGGAAGAGCACACGU ?
Result :: 28

Query :: Moving on to the next binder: target 2 MT 5'PFS CUU 3'PFS CAC (mixed) RNA 1: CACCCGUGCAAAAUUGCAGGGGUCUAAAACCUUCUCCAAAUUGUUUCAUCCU RNA 2: GGGAAUGGAUCCACAUCUACGAAUUCCUUAGGAUGAAACAAUUUGGAGAAGCACAGAUCGGAAGAGCACACGU
Result :: 3.41

***
Query :: Data request, read-out Kd, for target 1 insC 3' of 17,insA 3' of 6 (mixed) RNA 1: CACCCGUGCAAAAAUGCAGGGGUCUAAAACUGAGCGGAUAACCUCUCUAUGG RNA 2: GGGAAUGGAUCCACAUCUACGAAUUCGUACCAUAGCAGAGGUUAUCCAGCUCACCGAGAUCGGAAGAGCACACGU
Result :: 44

Query :: Another binder: target 1 MT 5'PFS ACG 3'PFS AAG (mixed) RNA 1: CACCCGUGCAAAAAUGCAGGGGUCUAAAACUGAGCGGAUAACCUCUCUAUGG RNA 2: GGGAAUGGAUCCACAUCUACGAAUUCACGCCAUAGAGAGGUUAUCCGCUCAAAGAGAUCGGAAGAGCACACGU
Result :: 26.5

Query :: Field entry: target 1 insA 3' of 6,insA 3' of 3 (mixed) RNA 1: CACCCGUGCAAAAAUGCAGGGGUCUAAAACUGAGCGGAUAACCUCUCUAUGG RNA 2: GGGAAUGGAUCCACAUCUACGAAUUCGUACCAUAGAGAGGUUAUCCAGCUACACCGAGAUCGGAAGAGCACACGU
Result :: 21.5

Query :: Cool, now target 2 MT 5'PFS UGG 3'PFS CUA (mixed) RNA 1: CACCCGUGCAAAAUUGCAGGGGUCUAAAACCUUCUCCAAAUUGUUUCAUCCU RNA 2: GGGAAUGGAUCCACAUCUACGAAUUCUGGAGGAUGAAACAAUUUGGAGAAGCUAAGAUCGGAAGAGCACACGU
Result :: 7
